Source listed as PubChem BioAssay (NCI).

Test system: K-562 leukemia
assayInfo: NCI tumour cell line growth inhibition, 48 h

compound	measuredOn	TGI
O=C1C(C(Nc2ccccc2)c2ccccc2)=C([O-])c2ccccc21.O=C1C(C(Nc2ccccc2)c2ccccc2)=C([O-])c2ccccc21.[Co+2] (centres undefined)	K-562 leukemia	> 100 µM
COc1ccc2[nH]c(C(=O)N3CCN(C(=O)OCc4ccc5c(Br)cc(Br)c(O)c5n4)CC3)cc2c1	K-562 leukemia	0.978 µM
COc1ccc(C2C(Cl)C(=O)N2NC(=O)c2ccccc2O)cc1 (centres undefined)	K-562 leukemia	> 100 µM
COc1ccc(O)cc1C=O	K-562 leukemia	> 100 µM
Clc1ccc(CN2COc3c(ccc4cccnc34)C2)cc1Cl	K-562 leukemia	2.68 µM
N#CCCN1C/C(=C/c2ccccc2)C(=O)/C(=C/c2ccccc2)C1	K-562 leukemia	> 100 µM
c1cc2ccc3cc2cc1CNCCN1CCNCc2ccc4ccc(cc4c2)CNCCN(CCNC3)CCNCc2ccc3ccc(cc3c2)CNCC1	K-562 leukemia	> 100 µM
CCOC(=O)C(C(N)=O)c1nc2cc([N+](=O)[O-])ccc2nc1/C=C(\O)c1ccccc1 (centres undefined)	K-562 leukemia	13.9 µM
O=C(c1c(Cl)cc(Cl)cc1Cl)N(Cc1cccnc1)C(=S)N(Cc1cccnc1)C(=O)c1c(Cl)cc(Cl)cc1Cl	K-562 leukemia	> 100 µM

====

Test system: SF-295 CNS
assayInfo: NCI tumour cell line growth inhibition, 48 h; in the data active = GI50 below about 0.43 µM; inactive = the rest
Outcomes: 1.0 for active, 0.0 for inactive

molecule	labelClass
COc1ccc(NC(=O)c2sc3nc(C)c(C(=O)/C=C/c4ccccc4)cc3c2N)cc1	0.0
Clc1ccc(CN2COc3c(ccc4cccnc34)C2)cc1Cl	0.0
Cc1ccncc1N1CCN(c2ccnc(Cl)c2)C1=O	0.0
CC1=C2[C@H]3OC(=O)[C@@H](C)[C@@H]3CC[C@@]2(C)C=CC1=O	0.0
Cn1cc(-c2ccc(-c3cn(C)c4ncccc34)[nH]2)c2cccnc21	0.0
O=C1CS/C(=N/S(=O)(=O)c2ccc(N3N=C4c5ccccc5CC4C3c3cccs3)cc2)N(c2ccccc2)C1 (stereo not given)	0.0
Cn1ccnc1C(=O)/C=C/c1ccc(C(=O)Nc2ccccc2F)cc1	0.0
Nc1c(C(=O)Nc2ccccc2)sc2nc3c(cc12)C(O)CCC3 (stereo not given)	1.0
COc1cc2c3c(n(CCCNCCCNCCCn4c5c(c6cc(OC)c(OC)cc6c4=O)C(=O)c4ccccc4-5)c(=O)c2cc1OC)-c1ccccc1C3=O	0.0
COc1ccc(C(=O)NCCNc2nccc(-c3c(-c4ccc(F)cc4)nc4sccn34)n2)cc1	0.0
O=C(Nc1ccc(-n2ccc3c(NC(=O)c4ccccc4)nccc32)cc1)c1cccc(C(F)(F)F)c1	1.0
Nc1ncc2ccc3c(ccn3C3CC(O)C(CO)O3)c2n1 (stereo not given)	0.0
CO/N=C(\COc1ccc2c(=O)cc(-c3ccccc3)oc2c1)c1ccc(F)cc1	0.0
Cc1ccc(S(=O)(=O)Oc2ccccc2-c2ccccc2)cc1	0.0
NC(=O)[C@@H](CCC(F)(F)F)N(Cc1ccc(-c2ncon2)cc1F)S(=O)(=O)c1ccc(Cl)cc1	0.0

====

Tested on: SF-295 CNS
assayInfo: NCI tumour cell line growth inhibition, 48 h

molecule	TGI
CCCCCCC/C(=N\N=C(N)N)c1ccc(O)cc1	4.46 µM
CC(C)=NN/C(=N\S(=O)(=O)c1cc2ccccc2s1)Nc1ccc(Cl)cc1	> 100 µM
O=[N+]([O-])c1ccc(/C(=C\c2ccccc2)Cn2ccnc2)cc1	> 100 µM
c1ccc(C2=NOC3COc4ccccc4OCC23)cc1 (stereo unspecified)	> 100 µM
CC1=Nc2c(N)nc(N)nc2N(C)C1	> 100 µM
Cc1ccc(C(=O)CCl)o1	> 10 µM

====

System: M14 melanoma
assayInfo: NCI tumour cell line growth inhibition, 48 h; in the data active = GI50 below about 0.43 µM; inactive = the rest
Outcomes: yes (active), no (inactive)

compound	measuredOn	labelClass
COc1cc(C(=O)/C=C/c2cc(-c3cc(OC)c(OC)c(OC)c3)n[nH]2)cc(OC)c1OC	M14 melanoma	no
COc1ccc2nc(NC(=O)COc3cc(/C=C\c4cc(OC)c(OC)c(OC)c4)ccc3OC)sc2c1	M14 melanoma	no
Clc1ccc(CN2COc3c(ccc4cccnc34)C2)cc1Cl	M14 melanoma	no
CCCCCC/C=C\CCCCCCCCCc1cc(O)cc(OC)c1O	M14 melanoma	yes
Nc1ncc2ccc3c(ccn3C3CC(O)C(CO)O3)c2n1 (centres undefined)	M14 melanoma	no
NCCOc1ncccc1/C=C1\C2C=CC=CC2C2C=CC(F)=CC12 (centres undefined)	M14 melanoma	no
O=C1N=C(c2c(-c3[nH]c(=O)c4ccc(Br)cc4c3O)c(O)c3ccccc3c2O)C(=O)c2cc(Br)ccc21	M14 melanoma	no
COc1ccc(C(=O)NCCNc2nccc(-c3c(-c4ccc(F)cc4)nc4sccn34)n2)cc1	M14 melanoma	no
COc1cc2c3c(n(CCCNCCCNCCCn4c5c(c6cc(OC)c(OC)cc6c4=O)C(=O)c4ccccc4-5)c(=O)c2cc1OC)-c1ccccc1C3=O	M14 melanoma	no

====

Below, each entry is listed alongside its reported TGI.
System: SW-620 colon
assayInfo: NCI tumour cell line growth inhibition, 48 h

molecule	TGI
COC1OC(C)C(OC(=O)C(C)(C)C)C(OS(=O)(=O)c2ccc(C)cc2)C1OS(=O)(=O)c1ccc(C)cc1 (stereo not drawn)	> 100 µM
COc1ccc(C(=O)/C=C/c2ccc(OCc3ccc(Cl)cc3)cc2)cc1OC	> 1000 µM
C=C(CC[C@@H](C)[C@H]1CC[C@H]2[C@@H]3C[C@@H](O)[C@H]4C[C@@H](O)CC[C@]4(CO)[C@H]3CC[C@]12C)C(C)C	16.5 µM
CCOC(=O)C(C)(C)Oc1ccc(Cl)cc1	> 1000 µM
COc1cc2c3c(n(CCCN(C)C)c(=O)c2cc1OC)-c1cc2c(cc1C3=O)OCO2	1.9 µM
C=CCCC(CCC=C)(C(=O)O)C(=O)O	> 100 µM
C=C1C2CC[C@@](C)(O)C2[C@H]2OC(=O)C(=C)[C@@H]2C[C@H]1O (stereo partly drawn)	> 100 µM
CC(=O)O[C@H]1C(=O)[C@@]2(C)[C@H]([C@H](OC(=O)c3ccccc3)[C@]3(O)C[C@H](OC(=O)[C@H](O)[C@@H](NC(=O)c4ccoc4)c4ccccc4)C(C)=C1C3(C)C)[C@]1(OC(C)=O)CO[C@@H]1C[C@@H]2O	> 100 µM
CC1(C)C(O)OC(O)C1(C)C (stereo not drawn)	> 100 µM
Cc1noc(NS(=O)(=O)c2ccc(NC(=O)c3ccc4[nH]c5ccccc5c(=O)c4c3)cc2)c1C	> 100 µM
CC(=O)NC1C(O)CC(OCCCSCCN)(C(=O)O)OC1C(O)C(O)CO (stereo not drawn)	> 100 µM
N#C/C(=C\c1ccc(Cl)cc1)c1nc(-c2cc3ccccc3oc2=O)cs1	> 100 µM
Cc1ccc(N=Nc2c(O)c(S(=O)(=O)O)cc3cc(S(=O)(=O)O)ccc23)c(C)c1	> 100 µM
COc1cc2c(cc1OCCCCOc1cc3nc(C)nc(Cl)c3cc1OC)N=C[C@@H]1CCCN1C2=O	10.1 µM
NC(=O)[C@@H](CCC(F)(F)F)N(Cc1ccc(-c2ncon2)cc1F)S(=O)(=O)c1ccc(Cl)cc1	> 100 µM
C[C@H](NS(=O)(=O)c1ccc(NC(=O)c2ccccc2)cc1)C(=O)O	> 100 µM
CC(=O)N(C)C=C1C(=O)N(C)C(=O)N(C)C1=O	> 100 µM
COc1cc2c3c(n(CCCNCCCNCCCn4c5c(c6cc(OC)c(OC)cc6c4=O)C(=O)c4ccccc4-5)c(=O)c2cc1OC)-c1ccccc1C3=O	> 100 µM
N=C(c1ccc(-c2cn3cc(C(=N)N4CCCC4)ccc3n2)cc1)N1CCCC1	> 100 µM
Cc1cc(C)n(-c2nc3ccccc3c(=O)[nH]2)n1	38.9 µM
CCOC(=O)C(=O)Nc1cccc(Cl)c1C	> 100 µM
CC1(C)CSCC(C)(C)C(=N/N)/C1=N\N	> 100 µM
Cc1ccc(S(=O)(=O)Oc2ccccc2-c2ccccc2)cc1	> 100 µM
CCN1CC2(COC)C(O)CC(OC)C34C5CC6(O)C(OC)C=C(C5C6OC(=O)c5ccc(OC)c(OC)c5)C(C(OC)C23)C14 (stereo not drawn)	> 7.5 µM
Cn1cccc(C(=O)c2ccccc2)c1=O	> 100 µM
C/C1=C/C2OC(=O)C3(C)C2C(CC2(C)OC1=CC2=O)OC3(O)C(C)C (stereo not drawn)	67.4 µM
COc1nc(C(=O)O)c(Cl)c(OC)c1Cl	> 100 µM
CO/N=C(\COc1ccc2c(=O)cc(-c3ccccc3)oc2c1)c1ccc(F)cc1	> 100 µM
CCN1C(Cl)=NS(=O)(=O)c2ccccc21	> 100 µM
O=C1CS/C(=N/S(=O)(=O)c2ccc(N3N=C4c5ccccc5CC4C3c3cccs3)cc2)N(c2ccccc2)C1 (stereo not drawn)	> 100 µM
O=c1c2ccccc2sc2nc(CCl)nn12	45.6 µM
O=c1[nH]c2ccccc2nc1CBr	17.5 µM
CCCCCCC(C)c1ccc2c(c1)C(=O)c1nc3ccncc3c(=O)n1-2 (stereo not drawn)	> 30.6 µM
